I'd be grateful if you could share measured growth inhibition for these entries.
experiment: NCI Yeast Anticancer Drug Screen. Data for the mec2-1 strain (AID 157); conditions: S. cerevisiae mec2-1 strain, at 5.0 µM (retest, dose inferred, filed as 0.5), hits give high values
The panel holds about 79,000 compounds, 15% with a hit somewhere; the sample as a whole holds those more often.
Give just the number in %; leave the unit off.

q: Identify the reported growth inhibition for the following entry. Cc1cc(Br)c2ccccc2c1N
a: 2

q: Identify the reported growth inhibition for the following entry. CSC(=S)N/N=C\C(C)=N/N=C(N)N
a: 16

q: Identify the reported growth inhibition for the following entry. O=C(O)c1c2c(c(O)c3c1CN(C1CCCCC1)CO3)OCN(C1CCCCC1)C2
a: 3

q: Identify the reported growth inhibition for the following entry. C=CC(=O)N1C/C(=C\c2ccc(F)cc2)C(=O)/C(=C/c2ccc(F)cc2)C1
a: 14

q: Identify the reported growth inhibition for the following entry. COc1ccc(/C(C#N)=C(/N)SCc2ccccc2Cl)cc1
a: -2

q: Identify the reported growth inhibition for the following entry. O=C(CSc1nnc(-c2ccc(N=Cc3ccc(Cl)cc3)cc2)o1)Nc1ccc(Cl)cc1Cl
a: -1

q: Identify the reported growth inhibition for the following entry. COc1cccc(C(c2cc3c(cc2O)OCO3)N2CCCC2)c1O (configuration not stated)
a: 1

q: Identify the reported growth inhibition for the following entry. CCCCN1CSC(=S)N(Cc2ccccc2)C1
a: 3

q: Identify the reported growth inhibition for the following entry. O=CNc1ccc(Oc2ccc(NC=O)cc2)cc1
a: -18

q: Identify the reported growth inhibition for the following entry. Cc1cc(Cl)cc2c1NC(=O)C2(O)C(C)C(=O)c1ccc(Cl)cc1 (configuration not stated)
a: -1

q: Identify the reported growth inhibition for the following entry. O=[N+]([O-])c1c(Cl)c(Cl)c(O)c(Cl)c1Cl
a: 44

q: Identify the reported growth inhibition for the following entry. O=C1c2ccccc2-c2cc3ccccc3nc21
a: 21

====

assay: NCI Yeast Anticancer Drug Screen. Data for the mec2-1 strain (AID 157); details: S. cerevisiae mec2-1 strain, at 50.0 µM, hits give high values
The panel holds about 79,000 compounds, 15% with a hit somewhere; the sample as a whole holds those more often.
property.label: growth inhibition (%)
Give just the number in %; leave the unit off.

q: Identify the reported growth inhibition for the following entry. CCOC(=O)c1ccc(N(CCC(O)CN=[N+]=[N-])S(=O)(=O)c2ccc(C)cc2)cc1 (stereo not drawn)
a: 19.4

q: Identify the reported growth inhibition for the following entry. CS(=O)(=O)OCCN(CCOS(C)(=O)=O)c1ccc(C=Nc2ccc3ccccc3c2)cc1
a: 73.2

q: Identify the reported growth inhibition for the following entry. Nc1ncnc2c1ncn2C1OCC(OCc2ccccc2)C(OCc2ccccc2)C1OCc1ccccc1 (stereo not drawn)
a: 96

q: Identify the reported growth inhibition for the following entry. Cc1cc(SCC(=O)c2ccccc2)cc(C)[o+]1
a: 95.6

q: Identify the reported growth inhibition for the following entry. CCOC(=O)c1ccc(NC(=O)O/N=C(/Cl)CCl)cc1
a: 83.8

q: Identify the reported growth inhibition for the following entry. CC(C)SC(=S)Nc1cc(C(F)(F)F)ccc1Cl
a: 99.7

q: Identify the reported growth inhibition for the following entry. Cc1cc(NC(=S)SCc2ccc(F)cc2)ccc1Br
a: 92.8

q: Identify the reported growth inhibition for the following entry. c1ccc(C2=NCCC(c3ccccc3)S2)cc1 (stereo not drawn)
a: -4.1

q: Identify the reported growth inhibition for the following entry. c1ccc2sc(SSN3CCOCC3)nc2c1
a: 89.2

q: Identify the reported growth inhibition for the following entry. CCOC1=Cc2c(oc3c(C(C)(C)C)cc(OCC)cc23)OC(C(C)(C)C)=C1
a: 85.3

q: Identify the reported growth inhibition for the following entry. O=C(NNc1ccccc1)c1ccc([N+](=O)[O-])cc1
a: 99.2

q: Identify the reported growth inhibition for the following entry. O=Nc1ccc(O)c(/C=N/O)c1
a: 91

q: Identify the reported growth inhibition for the following entry. CC1(CCC(=O)O)c2ccc3ccccc3c2Oc2c1ccc1ccccc21
a: 96.2

q: Identify the reported growth inhibition for the following entry. CCOc1ccccc1/C=C1\NC(=O)N(/C=C2\C(=O)Oc3ccccc3C2=O)C1=O
a: 94.2

q: Identify the reported growth inhibition for the following entry. C/C(=N\NC(=S)N1CCCCCC1)c1ccccn1
a: 92.6

q: Identify the reported growth inhibition for the following entry. CC(=O)Nc1ccccc1C(O)(c1ccccc1)c1ccccc1
a: 35.2

q: Identify the reported growth inhibition for the following entry. S=C(Nc1ccc(Cl)c(Cl)c1)SC1CCCCC1
a: 64.2

q: Identify the reported growth inhibition for the following entry. O=C(NCc1ccccc1)N1CCN(c2ccccc2)C1=O
a: 2.65

q: Identify the reported growth inhibition for the following entry. C=C1CC(C)(C)C(c2ccccc2)OC1=O (stereo not drawn)
a: 31.7

q: Identify the reported growth inhibition for the following entry. O=C(Nc1ccc(-c2cn3ccccc3n2)cc1)c1cc(Br)ccc1O
a: -28.6

q: Identify the reported growth inhibition for the following entry. CCCCCCCCCCCCCCCCCC(=O)OC(C)CCC1CCCO1 (stereo not drawn)
a: 12.8

q: Identify the reported growth inhibition for the following entry. CC(CN(C)C)C(/C=C/c1ccc(F)cc1)=N\Nc1ccccc1 (stereo not drawn)
a: 12.6

q: Identify the reported growth inhibition for the following entry. C[n+]1c(-c2ccc(/C=N\NC(=O)c3ccc(C(=O)N/N=C/c4ccc(-c5cn6ccsc6[n+]5C)cc4)cc3)cc2)cn2ccsc21
a: 86.7

Measured values drawn from PubChem BioAssay (NCI) for this set.
